System: C. albicans ATCC 10231
Assay type: cell-based, Candida albicans
recordedConditions: ATCC 10231, 24 h, pH 7
Residues, ends and D or L forms follow the SMILES beside them.
Returns: string. Value is label 1 if measured MIC CA is below 30 µg/mL, and label 0 if it is greater than or equal to it.

CCCCCCCCCCCCCC(=O)N[C@@H](CCCCN)C(=O)N[C@@H](CCCNC(=N)N)C(=O)N[C@@H](CCCNC(=N)N)C(N)=O [compound 42, C14-KRR-NH2] (HELM PEPTIDE1{[CCCCCCCCCCCCCC(=O)[*:2]].K.R.R.[am]}$$$$V2.0); label 0
CCCCCCCCCCCC(=O)N1CCC[C@H]1C(=O)N[C@@H](CCCNC(=N)N)C(=O)N[C@@H](CCCNC(=N)N)C(N)=O; label 0
CCCCCCCCCCCCCC(=O)N[C@@H](CC[S+](C)[O-])C(=O)N[C@@H](CCCNC(=N)N)C(=O)N[C@@H](CCCNC(=N)N)C(N)=O (stereo partly drawn) [compound 54, C14-M(O)RR-NH2] (HELM PEPTIDE1{[CCCCCCCCCCCCCC(=O)[*:2]].[CS(=O)CC[C@H](N[*:1])C(=O)[*:2]].R.R.[am]}$$$$V2.0); label 0
CCCCCCCCCCCC(=O)N[C@H](C(=O)N[C@@H](CCCNC(=N)N)C(=O)N[C@@H](CCCNC(=N)N)C(N)=O)[C@@H](C)CC [compound 37, C12-IRR-NH2] (HELM PEPTIDE1{[CCCCCCCCCCCC(=O)[*:2]].I.R.R.[am]}$$$$V2.0); label 1
CCCCCCCCCCCCCC(=O)N[C@@H](Cc1ccccc1)C(=O)N[C@@H](CCCNC(=N)N)C(=O)N[C@@H](CCCNC(=N)N)C(N)=O [compound 26, C14-FRR-NH2] (HELM PEPTIDE1{[CCCCCCCCCCCCCC(=O)[*:2]].F.R.R.[am]}$$$$V2.0); label 1
CCCCCCCCCCCCCC(=O)N[C@H](C(=O)N[C@@H](CCCNC(=N)N)C(=O)N[C@@H](CCCNC(=N)N)C(N)=O)[C@@H](C)CC [compound 38, C14-IRR-NH2] (HELM PEPTIDE1{[CCCCCCCCCCCCCC(=O)[*:2]].I.R.R.[am]}$$$$V2.0); label 1
CCCCCCCCCCCCCC(=O)N[C@@H](Cc1c[nH]c2ccccc12)C(=O)N[C@@H](CCCNC(=N)N)C(=O)N[C@@H](CCCNC(=N)N)C(N)=O [compound 98, C14-WRR-NH2] (HELM PEPTIDE1{[CCCCCCCCCCCCCC(=O)[*:2]].W.R.R.[am]}$$$$V2.0); label 1
CCCCCCCCC(CCCCCC)C(=O)N[C@@H](CCCNC(=N)N)C(=O)N[C@@H](CCCNC(=N)N)C(N)=O (stereo partly drawn); label 1
CCCCCCCCCCCC(=O)N[C@@H](CCCNC(=N)N)C(=O)N[C@@H](CCCNC(=N)N)C(=O)N[C@@H](CCCNC(=N)N)C(N)=O [compound 81, C12-RRR-NH2] (HELM PEPTIDE1{[CCCCCCCCCCCC(=O)[*:2]].R.R.R.[am]}$$$$V2.0); label 0
CCCCCCCCCCCCCC(=O)N1CCC[C@H]1C(=O)N[C@@H](CCCNC(=N)N)C(=O)N[C@@H](CCCNC(=N)N)C(N)=O; label 1

As a next step, examine the compound that follows.
Below 30 µg/mL on MIC CA? Entry CCCCCCCCCCCC(=O)N[C@@H](Cc1ccc(O)cc1)C(=O)N[C@@H](CCCNC(=N)N)C(=O)N[C@@H](CCCNC(=N)N)C(N)=O [compound 101, C12-YRR-NH2] (HELM PEPTIDE1{[CCCCCCCCCCCC(=O)[*:2]].Y.R.R.[am]}$$$$V2.0) label 0

These entries and their values trace back to paper PMC7024302.
